The measurements presented in this section are drawn from patent US5478929A.

- Tested on: Trichostrongylus sigmodontis
- EXPERIMENT SUMMARY: Anthelmintic activity against Trichostrongylus sigmodontis (large bowel worm)
- Assay type: in vivo
- APPLIED CONDITIONS: Table 4; 0.25 mg/kg
OBSERVATION TYPE: Activity profile, Trichostrongulus sigmodontis

COMPOUND	VALUE OBSERVED
CC[C@H](C)[C@H]1O[C@]2(CC[C@@H]1C)C[C@@H]1C[C@@H](C/C=C(\C)[C@@H](O[C@H]3C[C@H](OC)[C@@H](O[C@H]4C[C@H](OC)[C@@H](O)[C@H](C)O4)[C@H](C)O3)[C@@H](C)/C=C/C=C3\CO[C@@H]4[C@H](O)C(C)=C[C@@H](C(=O)O1)[C@]34O)O2 [22,23 dihydro 8 B1a, 22,23 dihydro B1a, reference compound]	A (85-100% effective)
CC[C@H](C)[C@H]1O[C@]2(C=C[C@@H]1C)C[C@@H]1C[C@@H](C/C=C(\C)[C@@H](O[C@H]3C[C@H](OC)[C@@H](O[C@H]4C[C@H](OC)[C@@H](O)[C@H](C)O4)[C@H](C)O3)[C@@H](C)/C=C/C=C3\CO[C@@H]4[C@H](O)C(C)=C[C@@H](C(=O)O1)[C@]34O)O2 [B1a, avermectin B1a, reference compound]	A (85-100% effective)
CO[C@H]1C[C@H](O[C@H]2[C@H](C)O[C@@H](O[C@@H]3/C(C)=C/C[C@@H]4C[C@@H](C[C@]5(CC[C@H](C)[C@@H]([C@@H](C)C(C)O)O5)O4)OC(=O)[C@@H]4C=C(C)[C@@H](O)[C@H]5OC/C(=C\C=C\[C@@H]3C)[C@]54O)C[C@@H]2OC)O[C@@H](C)[C@@H]1O (single isomer, unassigned) [27-OH-22,23 dihydro B1a isomer A, 27-OH 22,23 dihydroavermectin B la]	A (85-100% effective)
CO[C@H]1C[C@H](O[C@H]2[C@H](C)O[C@@H](O[C@@H]3/C(C)=C/C[C@@H]4C[C@@H](C[C@]5(CC[C@H](C)[C@@H]([C@@H](C)C(C)O)O5)O4)OC(=O)[C@@H]4C=C(C)[C@@H](O)[C@H]5OC/C(=C\C=C\[C@@H]3C)[C@]54O)C[C@@H]2OC)O[C@@H](C)[C@@H]1O (single isomer, unassigned) [27-OH-22,23 dihydro B1a isomer B, 27-OH 22,23 dihydroavermectin B la]	I

---

- System: Trichostrongylus colubriformis
- EXPERIMENT SUMMARY: Anthelmintic activity against Trichostrongylus colubriformis
- Assay type: in vivo
- APPLIED CONDITIONS: Table 4; 0.0625 mg/kg
OBSERVATION TYPE: Activity profile, Trichostrongulus colubriformis

COMPOUND	VALUE OBSERVED
CO[C@H]1C[C@H](O[C@H]2[C@H](C)O[C@@H](O[C@@H]3/C(C)=C/C[C@@H]4C[C@@H](C[C@]5(CC[C@H](C)[C@@H]([C@@H](C)C(C)O)O5)O4)OC(=O)[C@@H]4C=C(C)[C@@H](O)[C@H]5OC/C(=C\C=C\[C@@H]3C)[C@]54O)C[C@@H]2OC)O[C@@H](C)[C@@H]1O (single isomer, unassigned) [27-OH-22,23 dihydro B1a isomer B, 27-OH 22,23 dihydroavermectin B la]	I
CC[C@H](C)[C@H]1O[C@]2(CC[C@@H]1C)C[C@@H]1C[C@@H](C/C=C(\C)[C@@H](O[C@H]3C[C@H](OC)[C@@H](O[C@H]4C[C@H](OC)[C@@H](O)[C@H](C)O4)[C@H](C)O3)[C@@H](C)/C=C/C=C3\CO[C@@H]4[C@H](O)C(C)=C[C@@H](C(=O)O1)[C@]34O)O2 [22,23 dihydro 8 B1a, 22,23 dihydro B1a, reference compound]	A (85-100% effective)
CO[C@H]1C[C@H](O[C@H]2[C@H](C)O[C@@H](O[C@@H]3/C(C)=C/C[C@@H]4C[C@@H](C[C@]5(C=C[C@H](C)[C@@H]([C@@H](C)C(C)O)O5)O4)OC(=O)[C@@H]4C=C(C)[C@@H](O)[C@H]5OC/C(=C\C=C\[C@@H]3C)[C@]54O)C[C@@H]2OC)O[C@@H](C)[C@@H]1O (single isomer, unassigned) [27-OHB1a isomer B, 27-OHB1a]	A (85-100% effective)
CC[C@H](C)[C@H]1O[C@]2(C=C[C@@H]1C)C[C@@H]1C[C@@H](C/C=C(\C)[C@@H](O[C@H]3C[C@H](OC)[C@@H](O[C@H]4C[C@H](OC)[C@@H](O)[C@H](C)O4)[C@H](C)O3)[C@@H](C)/C=C/C=C3\CO[C@@H]4[C@H](O)C(C)=C[C@@H](C(=O)O1)[C@]34O)O2 [B1a, avermectin B1a, reference compound]	A (85-100% effective)

[in] Which Activity profile, Trichostrongulus colubriformis reading was recorded for the compound CO[C@H]1C[C@H](O[C@H]2[C@H](C)O[C@@H](O[C@@H]3/C(C)=C/C[C@@H]4C[C@@H](C[C@]5(CC[C@H](C)[C@@H]([C@@H](C)C(C)O)O5)O4)OC(=O)[C@@H]4C=C(C)[C@@H](O)[C@H]5OC/C(=C\C=C\[C@@H]3C)[C@]54O)C[C@@H]2OC)O[C@@H](C)[C@@H]1O (single isomer, unassigned) [27-OH-22,23 dihydro B1a isomer A, 27-OH 22,23 dihydroavermectin B la] ?
[out] A (85-100% effective)
